Listed next: entries and their corresponding MIC.
system: Mycobacterium tuberculosis My 331/88; assay: In vitro antimycobacterial evaluation (MIC, Sula semisynthetic medium); assay type: cell-based; details: MY331/88, 336 h, 14d incubation
Give the quantity in µM, number only.

INSERT INTO measurements (compound, parameter_measured, unit_spec, measured_number) VALUES
  ('C(/C=C/c1nc2ccccc2o1)=C\c1ccccc1', 'MIC', 'µM', 125),
  ('FC(F)(F)c1ccc(/C=C/c2nc3ccccc3o2)cc1', 'MIC', 'µM', 125),
  ('COc1ccc(/C=C/C=C/c2nc3ccccc3o2)cc1', 'MIC', 'µM', 125),
  ('Cc1ccc(/C=C/c2nc3ccccc3o2)cc1', 'MIC', 'µM', 250),
  ('C(=C\c1nc2ccccc2o1)/c1ccccc1 [Compound 1, 2-[(E)-2-Phenylethenyl]-1,3-benzoxazole]', 'MIC', 'µM', 125),
  ('NNC(=O)c1ccncc1 [INH, isoniazid, reference compound]', 'MIC', 'µM', 0.5),
  ('CSc1ccc(/C=C/c2nc3ccccc3o2)cc1', 'MIC', 'µM', 62.5),
  ('C(=C\c1nc2ccccc2o1)/c1ccco1', 'MIC', 'µM', 62.5);

The measured MIC associated with Clc1ccc(/C=C/c2nc3ccccc3o2)cc1 reads 250

The measured MIC associated with COc1ccc(/C=C/c2nc3ccccc3o2)cc1 reads 62.5
